assay: chemical genetic growth profiling, strain panel (AID 1159580);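 note: tested at 20 µM; growth read once vehicle control cultures reached saturation at 30 °C; 1 = growth at the plate median or of vehicle wells; lower values mean less growth of the strain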; conditions: S. cerevisiae deletion strains, growth OD, locus YDL005C, strain med2
Among all 5,500 compounds or so, about 2,000 (36%) were called active. Another 18% or so got no clear call; they are omitted. Cut-off read from the data, not from the text of the source: active = normalized growth mostly below about 0.91 (no sharp cut-off); inconclusive = no clear call, values can overlap the other calls; inactive = mostly above about 0.92. This is one part of the list.
Outcomes you can answer with include only these: active, inactive

As a guide, the following entries are already answered.
[[record]]
compound = "CC(CC(=O)C(O)C(C)(C)O)C1C(=O)CC2(C)C3=CCC4C(C)(C)C(OC5OCC(O)C(O)C5O)CCC45CC35C(O)CC12C (centres undefined)"
label_class = "inactive"

[[record]]
compound = "C[C@@H]1C(=O)O[C@H]2[C@H]1CC[C@@]1(C)C=CC(=O)[C@@]3(C)O[C@@]213"
label_class = "inactive"

[[record]]
compound = "COc1ccc2c(c1)c(CC(=O)O)c(C)n2C(=O)c1ccc(Cl)cc1"
label_class = "inactive"

[[record]]
compound = "FC(F)(F)c1ccccc1-n1ccnc1"
label_class = "inactive"

[[record]]
compound = "OC(CCN1CCCCC1)(c1ccccc1)C1CC2C=CC1C2 (centres undefined)"
label_class = "inactive"


Just curious, what result did CC1(C)CC[C@]2(C(=O)O)CC[C@]3(C)C(=CCC4[C@@]5(C)CC[C@H](O)[C@@](C)(CO)C5CC[C@]43C)C2C1 (some centres undefined) get here?
inactive

Just curious, what result did C[C@@H]1OC(O[C@H]2C(O[C@H]3CC[C@@]4(C)C(CC[C@]5(C)C4CC=C4C6CC(C)(C)CC[C@]6(C(=O)O)CC[C@]45C)[C@]3(C)CO)OC[C@H](O)[C@@H]2O)[C@H](O)[C@H](O)[C@H]1O (some centres undefined) get here?
active

Just curious, what result did NCCC(=O)N[C@@H](Cc1cnc[nH]1)C(=O)O get here?
inactive

Just curious, what result did C[C@@H]1CC[C@H]2[C@@H](C)C(O)O[C@@H]3O[C@@]4(C)CC[C@@H]1[C@]32OO4 (some centres undefined) get here?
active

----------
assay: chemical genetic growth profiling, strain panel (AID 1159580); conditions: S. cerevisiae deletion strains, growth OD, locus YHR129C, strain ARP1, stronger effect = lower value
About 2,000 (36%) of roughly 5,500 compounds were called active. About 18% were inconclusive and are not listed. The list shows a part of the results.
Mark true for normalized growth under 1, false if at or over.

As a guide, the following entries are already answered.
[[record]]
compound = "Clc1ccccc1C(c1ccccc1)(c1ccccc1)n1ccnc1"
label_class = "true"

[[record]]
compound = "CC(=O)OC1CC[C@@]2(C)C(CC[C@]3(C)C2CCC2C4CC(C)(C)CCC4(C(=O)O)CC[C@]23C)C1(C)C (some centres not stated)"
label_class = "false"


Consider the record given below.
Hello, I'm reviewing records and need to know if normalized growth of N[C@H](C(=O)O)[C@@H]1CC(Cl)=NO1 is below 1. Could you check?
true

----------
normalized growth values by entry
assay: chemical genetic growth profiling, strain panel (AID 1159580); conditions: S. cerevisiae deletion strains, growth OD, locus YKL085W, strain MDH1 (second series), stronger effect = lower value
Out of some 5,500 compounds screened, about 2,000 (36%) were called active. About 18% were inconclusive and are not listed. The list shows a part of the results. Where a SMILES comes first, the peptide text is derived from it. The star is where a group is joined. For = O=C*
Please reply with the value in numeric form only.

// below: answered molecules
[[record]]
molecule = "NC(N)=N/N=C/c1c(Cl)cccc1Cl"
endpoint = "normalized growth"
meas_value = 1

[[record]]
molecule = "C[C@H]1[C@H](C)CC[C@]2(CO)CC[C@]3(C)C(=CCC4[C@@]5(C)CC[C@H](O)C(C)(C)C5CC[C@]43C)[C@H]12 (some centres undefined)"
endpoint = "normalized growth"
meas_value = 1.04

[[record]]
molecule = "CCC(C)C(=O)O[C@H]1[C@H](O)C2C(CN3CC(C)CCC3[C@@]2(C)O)C2C[C@]34O[C@]5(O)C(OC(=O)C(C)(O)CC)CC[C@@]3(C)C5C(OC(C)=O)[C@@H](OC(C)=O)C4[C@@]21O (some centres undefined)"
endpoint = "normalized growth"
meas_value = 1.03


For CSCCC(NC=O)C(=O)NC(Cc1ccccc1)C(=O)O (stereo not drawn) (For-Met-Phe-OH; configuration not given here) , write its normalized growth.
1.01

For Nc1c2ccccc2nc2ccccc12 , write its normalized growth.
0.872

For CNCc1ccccc1 , write its normalized growth.
0.976

For O=C(COc1ccc(Cl)cc1)N1CCN(Cc2ccc3c(c2)OCO3)CC1 , write its normalized growth.
0.98

For Cc1ccc(-c2cc(C(F)(F)F)nn2-c2ccc(S(N)(=O)=O)cc2)cc1 , write its normalized growth.
1

For COc1ccc2[nH]cc(CCN)c2c1 , write its normalized growth.
0.991

----------
experiment: chemical genetic growth profiling, strain panel (AID 1159580); details: S. cerevisiae deletion strains, growth OD, locus YGR040W, strain KSS1, stronger effect = lower value
In all, about 5,500 compounds went through this assay and about 2,000 (36%) were called active. Inconclusive results (about 18%) are left out. The list shows a part of the results.
endpoint: normalized growth
Please reply with the value in numeric form only.

[[record]]
smiles_string = "S=C(Nc1ccc(Cl)cc1)SCc1c(Cl)cccc1Cl"
meas_value = 0.938

[[record]]
smiles_string = "Cc1nc(-c2cccnc2)nc(NCc2ccccc2)c1Cl"
meas_value = 0.841

[[record]]
smiles_string = "CSc1n[nH]c(-c2cc(C(F)(F)F)cc(C(F)(F)F)c2)n1"
meas_value = 0.893

[[record]]
smiles_string = "Nc1ccc(Sc2ccccc2)nc1Sc1ccccc1"
meas_value = 0.909

[[record]]
smiles_string = "Clc1ccc2c(c1)c1ccccc1n2CN1CCOCC1"
meas_value = 0.592


# context switch: different compound, same normalized growth
For O=S(=O)(NC(=S)Nc1ccc(Cl)c(Cl)c1)c1ccccc1 , write its normalized growth.
1.01

----------
experiment: chemical genetic growth profiling, strain panel (AID 1159580);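 note: tested at 20 µM; growth read once vehicle control cultures reached saturation at 30 °C; 1 = growth at the plate median or of vehicle wells; lower values mean less growth of the strain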; settings: S. cerevisiae deletion strains, growth OD, locus YKL203C, strain TOR2, stronger effect = lower value
About 2,000 (36%) of roughly 5,500 compounds were called active. Inconclusive results (about 18%) are left out. The list shows a part of the results.
normalized growth values by entry
Please reply with the value in numeric form only.

// below: answered compounds
[[record]]
smiles_string = "Cc1ccc(C)c(CSc2nc(C3CCCCC3)c(C#N)c(=O)[nH]2)c1"
meas_value = 1.09

[[record]]
smiles_string = "Cc1nc(-c2ccccn2)[nH]c(=O)c1Cc1c(Cl)cccc1Cl"
meas_value = 0.899

[[record]]
smiles_string = "Cc1nc(-c2ccccn2)nc(SCc2ccccc2)c1Cl"
meas_value = 0.869

[[record]]
smiles_string = "O=C(NCCc1ccncc1)c1ccc(Cl)c(Cl)c1"
meas_value = 1.01

[[record]]
smiles_string = "CSc1n[nH]c(-c2cc(C(F)(F)F)cc(C(F)(F)F)c2)n1"
meas_value = 1

[[record]]
smiles_string = "CC(C)(C)C(=O)N(Cc1cccnc1)Cc1ccc(Cl)cc1Cl"
meas_value = 0.99

[[record]]
smiles_string = "O=S(=O)(NC(=S)Nc1ccc(Cl)c(Cl)c1)c1ccccc1"
meas_value = 1.07

[[record]]
smiles_string = "N#Cc1c2ccccc2nc2ccccc12"
meas_value = 0.693


For O=S(=O)(c1ccc(Cl)cc1)N(Cc1cccnc1)Cc1ccc(Cl)cc1Cl , write its normalized growth.
0.408

For Fc1ccc(NC(=S)N2CCCN(Cc3ccc(Cl)cc3Cl)CC2)cc1 , write its normalized growth.
1.05

For O=C(c1ccc(Cl)cc1)N(Cc1ccccc1)Cc1cccnc1 , write its normalized growth.
0.944

For Cc1nc(-c2ccccn2)nc(N(C)Cc2ccccc2)c1Cl , write its normalized growth.
1.01

----------
assay: chemical genetic growth profiling, strain panel (AID 1159580);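 note: tested at 20 µM; growth read once vehicle control cultures reached saturation at 30 °C; 1 = growth at the plate median or of vehicle wells; lower values mean less growth of the strain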; conditions: S. cerevisiae deletion strains, growth OD, locus YOR106W, strain vam3, stronger effect = lower value
The campaign covered roughly 5,500 compounds. About 2,000 (36%) were called active. Another 18% or so got no clear call; they are omitted. Some of the results follow.
endpoint: normalized growth
Please reply with the value in numeric form only.

For CCN1C[C@]2(OC(=O)c3ccccc3NC(C)=O)CCC(OC)[C@]34C1[C@H](CC23)[C@@]1(O)CC(OC)[C@H]2CC4C1(O)[C@H]2OC (some centres undefined) , write its normalized growth.
0.959

----------
test: chemical genetic growth profiling, strain panel (AID 1159580);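 note: tested at 20 µM; growth read once vehicle control cultures reached saturation at 30 °C; 1 = growth at the plate median or of vehicle wells; lower values mean less growth of the strain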; conditions: S. cerevisiae deletion strains, growth OD, strain wtn01, stronger effect = lower value
Out of some 5,500 compounds screened, about 2,000 (36%) were called active. Not shown: some 18% with an inconclusive outcome. The list shows a part of the results.
normalized growth values by entry
Please reply with the value in numeric form only.

[[record]]
molecule = "CC(=O)O[C@H]1CC[C@@]2(C)C(CC[C@]3(C)C2C(=O)C=C2C4[C@@H](C)[C@H](C)CC[C@]4(C(=O)O)CC[C@]23C)C1(C)C (some centres undefined)"
meas_value = 0.977


For CC1(C)CC[C@]2(C(=O)O)CC[C@]3(C)C(=CCC4[C@@]5(C)CC[C@H](O)[C@@](C)(CO)C5CC[C@]43C)C2C1 (some centres undefined) , write its normalized growth.
0.997

For CC(=O)O[C@H]1CC[C@@]2(C)C(CC[C@]3(C)C2CC=C2C4CC(C)(C)CC[C@]4(C)CC[C@]23C)C1(C)C (some centres undefined) , write its normalized growth.
1.02

For CC(=O)O[C@@H]1CC[C@@]2(C)C(CC[C@]3(C)C2CC=C2C4CC(C)(C)CC[C@]4(C(=O)O)CC[C@]23C)C1(C)C (some centres undefined) , write its normalized growth.
1.03
